Target: T1, recombinant human TIGIT (Sino Biological) (human, UniProt Q495A1 22-138)
T1 construct: Bought protein; NP_776160.2; also called human TIGIT antigen; hTIGIT
T1 sequence: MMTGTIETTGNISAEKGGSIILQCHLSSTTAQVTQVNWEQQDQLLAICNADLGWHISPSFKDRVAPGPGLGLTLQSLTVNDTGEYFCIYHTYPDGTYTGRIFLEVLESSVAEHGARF
Experiment: SPR single cycle kinetics; KD divided by KD of the VH0/Vκ0 chimeric antibody;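 note: biacore T200 SPR at 25 °C, IgG captured on anti-human chip, TIGIT analyte in four rising concentrations, 210 s association each, 900 s dissociation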
ASSAY_READOUT: Relative KD
# answer = number (no unit)

• 7A6 VH1/Vκ5 humanized antibody (human IgG1, kappa) (antibody, V domains shown, Tested as IgG in supernatant of transiently transfected HEK293 EBNA cells) VH: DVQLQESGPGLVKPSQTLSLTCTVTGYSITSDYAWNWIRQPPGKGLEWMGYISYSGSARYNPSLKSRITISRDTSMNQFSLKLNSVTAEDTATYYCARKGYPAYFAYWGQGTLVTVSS VL: DIQMTQSPSSLSASVGDRVSITCKASQDVSTAVAWYQQKPGQAPRLLIYSASYRYTGVPDRFSGSGSGTDFTLTISSLQPEDFATYYCQHHYSTPYTFGQGTKLEIKR = 1.1

Ask | Which Relative KD is reported for this binder? 7A6 VH1/Vκ1 humanized antibody (human IgG1, kappa) (antibody, V domains shown, Tested as IgG in supernatant of transiently transfected HEK293 EBNA cells) VH: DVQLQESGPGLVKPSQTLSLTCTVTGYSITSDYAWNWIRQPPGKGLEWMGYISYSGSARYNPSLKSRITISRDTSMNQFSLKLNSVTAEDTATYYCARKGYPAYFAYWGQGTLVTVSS VL: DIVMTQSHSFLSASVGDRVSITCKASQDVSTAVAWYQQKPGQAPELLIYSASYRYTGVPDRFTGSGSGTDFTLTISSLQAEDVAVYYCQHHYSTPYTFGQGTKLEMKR
Reply | 0.85

Ask | Okay, and 7A6 VH3/Vκ1 humanized antibody (human IgG1, kappa) (antibody, V domains shown, Tested as IgG in supernatant of transiently transfected HEK293 EBNA cells) VH: QVQLQESGPGLVKPSQTLSLTCTVTGYSITSDYAWNWIRQPPGKGLEWMGYISYSGSARYNPSLKSRVTISRDTSKNQFSLKLSSVTAEDTATYYCARKGYPAYFAYWGQGTLVTVSS VL: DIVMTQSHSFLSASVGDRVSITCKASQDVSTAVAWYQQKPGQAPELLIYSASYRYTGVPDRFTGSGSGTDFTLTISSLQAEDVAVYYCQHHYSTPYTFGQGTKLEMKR ?
Reply | 1.1

Ask | Now the binder 7A6 VH5/Vκ1 humanized antibody (human IgG1, kappa) (antibody, V domains shown, Tested as IgG in supernatant of transiently transfected HEK293 EBNA cells) VH: QVQLQESGPGLVKPSQTLSLTCTVTGYSITSDYAWNWIRQPPGKGLEWMGYISYSGSARYNPSLKSRVTISVDTSKNQFSLKLSSVTAADTAVYYCARKGYPAYFAYWGQGTLVTVSS VL: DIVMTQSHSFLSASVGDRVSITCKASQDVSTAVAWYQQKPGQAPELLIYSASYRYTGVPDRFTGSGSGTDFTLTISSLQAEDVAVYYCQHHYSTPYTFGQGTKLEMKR
Reply | 1.32

Ask | Then 7A6 VH2/Vκ1 humanized antibody (human IgG1, kappa) (antibody, V domains shown, Tested as IgG in supernatant of transiently transfected HEK293 EBNA cells) VH: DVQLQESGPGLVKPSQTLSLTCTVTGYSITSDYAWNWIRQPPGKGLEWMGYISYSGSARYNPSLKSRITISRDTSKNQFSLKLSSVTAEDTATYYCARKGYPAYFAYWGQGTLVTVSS VL: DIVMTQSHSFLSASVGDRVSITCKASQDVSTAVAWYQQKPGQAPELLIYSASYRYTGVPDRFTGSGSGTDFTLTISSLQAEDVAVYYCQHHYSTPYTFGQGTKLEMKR ?
Reply | 1.1
